method_description: Pharmacokinetic profiling in mice
stated_conditions: male, CD-1/C57BL/6, mouse, plasma, iv, 1 mg/kg
reported_endpoint: half-life (h)
All answers are understood in h, so give the number only.

Form field: reported half-life of CCc1cnccc1C(=O)Nc1cc2c(cc1F)NC(=O)CC2
1.79

---

target: ALDH1a3 (Homo sapiens)
Sequence (P47895 whole entry): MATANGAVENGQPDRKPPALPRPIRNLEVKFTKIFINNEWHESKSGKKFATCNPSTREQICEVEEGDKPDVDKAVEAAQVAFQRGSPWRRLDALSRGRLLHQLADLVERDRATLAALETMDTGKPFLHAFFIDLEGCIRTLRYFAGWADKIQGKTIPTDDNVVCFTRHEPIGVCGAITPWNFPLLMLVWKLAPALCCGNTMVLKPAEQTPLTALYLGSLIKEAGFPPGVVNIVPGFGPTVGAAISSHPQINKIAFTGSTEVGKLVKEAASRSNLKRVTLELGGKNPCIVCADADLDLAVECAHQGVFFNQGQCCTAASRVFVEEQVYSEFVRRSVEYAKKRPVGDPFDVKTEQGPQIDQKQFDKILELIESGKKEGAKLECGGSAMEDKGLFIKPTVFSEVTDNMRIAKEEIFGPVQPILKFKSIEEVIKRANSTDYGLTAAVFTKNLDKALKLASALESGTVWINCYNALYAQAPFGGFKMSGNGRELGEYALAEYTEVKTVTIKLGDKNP
method_description: Aldh1a3 enzyme inhibition assay, recombinant hALDH1a3
stated_conditions: resorufin fluorescence, 20° C.
pIC50: −log10 of the molar value.
Attribute: pIC50

Would you please look over these solved cases?
molecule	pIC50
CCc1cnccc1C(=O)Nc1ccc2c(c1)CC1(CC1)C(=O)N2 [Compound 61]	6.60 to 7.00
O=C1CCc2cc(NC(=O)c3ccncc3)c(F)cc2N1 [Compound 2]	< 5.30
CC1(C)Cc2cc(Nc3nc(=O)c4ccccc4[nH]3)ccc2NC1=O [Compound 116]	6.00 to 6.60

Form field: reported pIC50 of O=C1CCc2cc(Oc3ncc4ccccc4n3)ccc2N1 [Compound 119]
< 5.30

Form field: reported pIC50 of CC1(C)Cc2cc(Nc3nc4ccccc4[nH]3)ccc2NC1=O [Compound 98]
5.30 to 6.00

Form field: reported pIC50 of CC1(C)Cc2cc(Nc3c[nH]c4c(c3=O)CCCC4)ccc2NC1=O [Compound 135]
< 5.30

Form field: reported pIC50 of CCc1cnccc1CC(=O)Nc1ccc2c(c1)CCC(=O)N2 [Compound 31]
< 5.30

Form field: reported pIC50 of O=C1CCc2cc(NC(=O)c3ccncc3CC3CC3)c(F)cc2N1 [Compound 81]
> 7.00

Form field: reported pIC50 of CCc1cc(=O)n(C)cc1C(=O)Nc1ccc2c(c1)CCC(=O)N2 [Compound 76]
< 5.30

Form field: reported pIC50 of CC1(C)Cc2cc(Nc3ccc4ccncc4c3)ccc2NC1=O [Compound 104]
< 5.30

Form field: reported pIC50 of CC1(C)Cc2cc(NN3CCC(c4ccccc4)C3=O)ccc2NC1=O (centres unmarked) [Compound 106]
< 5.30

Form field: reported pIC50 of CCc1cnc(C)cc1C(=O)Nc1ccc2c(c1)CCC(=O)N2 [Compound 56]
6.60 to 7.00

Form field: reported pIC50 of CC1(C)CC(=O)Nc2ccc(Nc3nccc4ccccc34)cc21 [Compound 34]
< 5.30

Form field: reported pIC50 of CC1(C)Cc2cc(Nc3ccc4ccccc4n3)c(F)cc2NC1=O [Compound 48]
6.00 to 6.60

Form field: reported pIC50 of CC1(C)Cc2cc(Nc3cccc(Cl)n3)ccc2NC1=O [Compound 122]
< 5.30

Form field: reported pIC50 of Cc1ccc(C(=O)Nc2ccc3c(c2)CCC(=O)N3)c(C)c1 [Compound 12]
< 5.30

Form field: reported pIC50 of CCc1cnccc1C(=O)Nc1ccc2c(c1)CC(C)(CC)C(=O)N2 (centres unmarked) [Compound 62]
5.30 to 6.00

Form field: reported pIC50 of CC1(C)Cc2cc(Nc3cc(Cl)c(Cl)cn3)ccc2NC1=O [Compound 125]
6.00 to 6.60

Form field: reported pIC50 of Cc1cnccc1C(=O)Nc1cc2c(cc1F)NC(=O)CC2 [Compound 15]
< 5.30

Form field: reported pIC50 of CC1(C)Cc2cc(Nc3ncc4ccccc4n3)c(F)cc2NC1=O [Compound 108]
5.30 to 6.00
